Target: human leukocyte 5-lipoxygenase (Homo sapiens, UniProt P09917)
Construct: endogenous in cells; host or cells: intact leukocytes isolated from human blood
Assay: 5-lipoxygenase inhibition in human leukocytes, 5-HETE formation (5LOA; methods 5LOA1 and 5LOA2)
Format: cell-based
Conditions: 5-HETE formation, human leukocytes; read-out: Concentration (M) for 50.0 % Inhibition, IC (5LOA)
experimental-endpoint: IC50 (M)

// known answers, use as guide
INSERT INTO results (molecule, readout_units, val) VALUES
  ('O=C(Nc1ccc(CCCc2ccc(Cl)c(Cl)c2)cc1)C1=C(O)c2ccccc2S(=O)(=O)C1 [Example 79]', 'M', '9.2e-06'),
  ('O=C(Nc1cccc(CCc2ccc(Cl)c(Cl)c2)c1)c1sc2ccccc2c1O [Example 146]', 'M', '3.96e-06');

(A) O=C(Nc1ccc(CCc2ccc(O)c(O)c2)cc1)C(=O)C1Oc2cc3ccccc3cc2C1=O (stereo not shown) [Example 129]
(B) O=C(Nc1ccc(CCc2ccc(O)c(O)c2)cc1)c1oc2c(ccc3ccccc32)c1O [Example 125]
(C) O=C(Nc1ccc(C=Cc2ccc([N+](=O)[O-])cc2)cc1)C1CS(=O)(=O)c2ccccc2C1=O (stereo not shown) [Example 67]
(D) COc1ccc(CCc2ccc(NC(=O)C3CS(=O)(=O)c4ccccc4C3=O)cc2)cc1O (stereo not shown) [Example 27]
(E) O=C(Nc1ccc(CCc2ccc(O)c(O)c2)cc1)c1oc2ccc3ccccc3c2c1O [Example 122]
Reorder: IC50, max to min. Form entry: labels listed in requested order.
D, C, B, E, A
(D: 1.8e-05 M, C: 1.17e-05 M, B: 4.01e-06 M, E: 7.6e-07 M, A: 5e-07 M)

(P) O=C(Nc1ccc(CCc2ccc(O)c(O)c2)cc1)C1Oc2c(n(-c3ccccc3)c3ccc(O)cc23)C1=O (stereo not shown) [Example 163]
(Q) O=C(Nc1ccc(CCc2ccccc2)cc1)C1CS(=O)(=O)c2ccccc2C1=O (stereo not shown) [Example 16]
Given the listed records, identify the one among P and Q with higher IC50. Reply briefly: the label of your chosen item.
Q

(A) O=C(Nc1ccc(CCc2ccc(O)c(O)c2)cc1)c1oc2ccccc2c1O [Example 124]
(B) COc1cc(CCc2ccc(NC(=O)C(=O)c3sc4ccccc4c3O)cc2)ccc1O [Example 142]
(C) O=C(Nc1ccc(CCc2ccc(O)c(O)c2)cc1)C1=C(O)c2ccccc2S(=O)(=O)C1 [Example 21]
(D) O=C(Nc1ccccc1CCCc1ccc(Cl)c(Cl)c1)C1=C(O)c2ccccc2S(=O)(=O)C1 [Example 80]
(E) Cn1c2ccccc2c2oc(C(=O)Nc3ccc(CCc4ccc(O)c(O)c4)cc3)c(O)c21 [Example 159]
Ascending by IC50, please. Form entry: labels listed in requested order.
C, E, A, B, D
(C: 7e-07 M, E: 1.18e-06 M, A: 4.2e-06 M, B: 6e-06 M, D: 1.01e-05 M)

---

Target: leukotriene receptor (guinea pig lung membranes) (Cavia porcellus, UniProt Q2NNR5)
Construct: 20 mg original tissue wet weight of guinea pig lung; tissue Kuiper Rabbit Farm, Gary, IN (animals); host or cells: guinea pig lung, crude membranes
Sequence (Q2NNR5 1-340): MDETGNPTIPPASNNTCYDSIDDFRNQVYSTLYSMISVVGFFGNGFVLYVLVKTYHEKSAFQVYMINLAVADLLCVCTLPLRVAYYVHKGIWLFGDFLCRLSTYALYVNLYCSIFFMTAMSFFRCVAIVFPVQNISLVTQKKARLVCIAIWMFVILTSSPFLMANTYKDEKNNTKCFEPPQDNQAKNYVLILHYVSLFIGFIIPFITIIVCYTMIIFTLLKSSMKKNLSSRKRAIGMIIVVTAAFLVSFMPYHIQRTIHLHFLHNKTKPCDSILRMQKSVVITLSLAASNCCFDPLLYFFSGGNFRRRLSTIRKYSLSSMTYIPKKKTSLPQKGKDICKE
Test: Binding of ^3 H-Leukotriene D4 to Guinea Pig Lung Membranes (RBL)
Settings: 0.2 nM ^3 H-LTD4, 60 min, 25° C.; read-out: Concentration (M) for 50.0 % Inhibition, IC (RBL)
experimental-endpoint: IC50 (M)

(A) COc1ccc(CCc2ccc(NC(=O)C(=O)c3sc4ccccc4c3O)cc2)cc1OC
(B) O=C(Nc1ccc(CCc2cc(O)cc(O)c2)cc1)C1=C(O)c2ccccc2S(=O)(=O)C1
Given the listed records, identify the one among A and B with higher IC50. Reply briefly: the label of your chosen item.
B
(B: 8.2e-05 M, A: 4.4e-06 M)

---

Molecular target: leukotriene receptor (guinea pig lung membranes) (Cavia porcellus, UniProt Q2NNR5)
Construct: 20 mg original tissue wet weight of guinea pig lung; tissue Kuiper Rabbit Farm, Gary, IN (animals); host or cells: guinea pig lung, crude membranes
Assay: Binding of ^3 H-Leukotriene D4 to Guinea Pig Lung Membranes (RBL)
Details: 0.2 nM ^3 H-LTD4, 60 min, 25° C.; read-out: Concentration (M) for 50.0 % Inhibition, IC (RBL)
experimental-endpoint: IC50 (M)

INSERT INTO results (molecule, val) VALUES
  ('O=C(Nc1ccc(Cc2ccc(Cl)c(Cl)c2)cc1)C1=C(O)c2ccccc2S(=O)(=O)C1', '4.82e-06');

(I) O=C(Nc1cccc(CCc2ccc(Cl)c(Cl)c2)c1)c1sc2ccccc2c1O
(II) O=C(Nc1ccccc1Cc1ccc(Cl)c(Cl)c1)C1=C(O)c2ccccc2S(=O)(=O)C1
Smaller IC50 value? Options are I and II Reply briefly: the label of your chosen item.
I

(I) O=C(Nc1ccc(CCc2ccc(Cl)cc2Cl)cc1)C1=C(O)c2ccccc2S(=O)(=O)C1
(II) COc1ccc(CCc2ccc(NC(=O)C3CS(=O)(=O)c4ccccc4C3=O)cc2)cc1 (centres unmarked)
Smaller IC50 value? Options are I and II Reply briefly: the label of your chosen item.
I
(I: 3.5e-06 M, II: 1.26e-05 M)

(1) CC(C)(C)c1cc(CCc2ccc(NC(=O)C3=C(O)c4ccccc4S(=O)(=O)C3)cc2)cc(C(C)(C)C)c1O
(2) O=C(Nc1ccc(CCc2cccc(O)c2)cc1)C1CS(=O)(=O)c2ccccc2C1=O (centres unmarked)
Given the listed records, identify the one among 1 and 2 with higher IC50. Reply briefly: the label of your chosen item.
2
(2: 3.95e-05 M, 1: 5.96e-06 M)

---

Molecular target: human leukocyte 5-lipoxygenase (Homo sapiens)
Construct: endogenous in cells; host or cells: intact leukocytes isolated from human blood
Sequence (P09917 1-674): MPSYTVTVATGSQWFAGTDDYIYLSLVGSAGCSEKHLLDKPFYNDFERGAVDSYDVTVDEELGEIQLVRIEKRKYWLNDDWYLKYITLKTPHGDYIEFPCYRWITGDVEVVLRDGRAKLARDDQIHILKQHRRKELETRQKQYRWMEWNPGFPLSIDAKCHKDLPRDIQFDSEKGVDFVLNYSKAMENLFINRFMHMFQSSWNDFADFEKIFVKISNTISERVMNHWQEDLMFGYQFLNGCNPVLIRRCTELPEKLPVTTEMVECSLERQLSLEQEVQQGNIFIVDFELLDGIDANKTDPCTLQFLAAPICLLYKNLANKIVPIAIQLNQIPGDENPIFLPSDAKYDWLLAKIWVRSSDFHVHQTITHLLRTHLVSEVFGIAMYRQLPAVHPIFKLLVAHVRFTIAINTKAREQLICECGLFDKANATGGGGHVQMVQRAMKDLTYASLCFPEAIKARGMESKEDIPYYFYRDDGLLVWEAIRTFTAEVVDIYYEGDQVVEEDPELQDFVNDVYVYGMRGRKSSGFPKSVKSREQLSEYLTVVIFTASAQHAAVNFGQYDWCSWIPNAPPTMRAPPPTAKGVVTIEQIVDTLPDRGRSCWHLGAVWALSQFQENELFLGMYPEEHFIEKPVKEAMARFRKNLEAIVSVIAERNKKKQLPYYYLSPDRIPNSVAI
Test: 5-lipoxygenase inhibition in human leukocytes, 5-HETE formation (5LOA; methods 5LOA1 and 5LOA2)
Format: cell-based
Details: 5-HETE formation, human leukocytes; read-out: Concentration (M) for 50.0 % Inhibition, IC (5LOA)
experimental-endpoint: IC50 (M)

INSERT INTO measurements (compound, val) VALUES
  ('O=C(Nc1ccc(CCc2ccc(-c3ccccc3)cc2)cc1)C1CS(=O)(=O)c2ccccc2C1=O (centres unmarked)', '1.1e-05'),
  ('O=C(Nc1ccc(CCc2ccc(O)c(O)c2)cc1)C(=O)C1=C(O)c2ccccc2OC1', '1.8e-06'),
  ('COc1ccc(CCc2ccc(NC(=O)C(=O)c3oc4ccccc4c3O)cc2)cc1OC', '7.6e-06');

(a) COc1ccc(CCc2ccc(NC(=O)C3CS(=O)(=O)c4ccccc4C3=O)cc2)cc1 (centres unmarked)
(b) O=C(Nc1ccc(CCc2ccc(Cl)cc2)cc1)c1sc2ccccc2c1O
(c) O=C(Nc1ccc(CCc2ccc3ccccc3c2)cc1)C1=C(O)c2ccccc2S(=O)(=O)C1
(d) Cc1ccc(CCc2ccc(NC(=O)C3CS(=O)(=O)c4ccccc4C3=O)cc2)cc1C (centres unmarked)
(e) COc1cc(C=Cc2ccc(NC(=O)C3=C(O)c4ccccc4S(=O)(=O)N3C)cc2)ccc1O
Ascending by IC50, please. Form entry: labels listed in requested order.
e, c, d, a, b
(e: 4e-07 M, c: 2.12e-06 M, d: 3.8e-06 M, a: 7e-06 M, b: 1.21e-05 M)
